Data provenance is patent US20200339625A1.

test system: mice bearing PSMA-expressing LNCAP cancer xenografts; assay: Biodistribution of 68Ga-labeled compounds; format: in vivo; settings: 3 h post-injection

{"columns": ["compound", "Seminal uptake / % ID/g"],
 "data": [
  ["O=C([O-])CN1CCN(CC(=O)[O-])CCN(CC(=O)NCCCC[C@H](NC(=O)CNC(=O)CCCc2ccc(F)cc2)C(=O)NC[C@H]2CC[C@H](C(=O)N[C@@H](Cc3ccc4ccccc4c3)C(=O)NCCCC[C@H](NC(=O)N[C@@H](CCC(=O)O)C(=O)O)C(=O)O)CC2)CCN(CC(=O)[O-])CC1.[68Ga+3] [^68Ga-HTK03085]", 0.21],
  ["O=C([O-])CN1CCN(CC(=O)[O-])CCN(CC(=O)NCCCC[C@H](NC(=O)CNC(=O)CCCc2ccc(Cl)cc2)C(=O)NC[C@H]2CC[C@H](C(=O)N[C@@H](Cc3ccc4ccccc4c3)C(=O)NCCCC[C@H](NC(=O)N[C@@H](CCC(=O)O)C(=O)O)C(=O)O)CC2)CCN(CC(=O)[O-])CC1.[68Ga+3] [^68Ga-HTK03055]", 1.07]
]}
